target: D2 receptor (Homo sapiens); assay: FLIPR Ca^2+ flux agonist assay at D2; assay type: cell-based
Sequence (P14416 whole entry): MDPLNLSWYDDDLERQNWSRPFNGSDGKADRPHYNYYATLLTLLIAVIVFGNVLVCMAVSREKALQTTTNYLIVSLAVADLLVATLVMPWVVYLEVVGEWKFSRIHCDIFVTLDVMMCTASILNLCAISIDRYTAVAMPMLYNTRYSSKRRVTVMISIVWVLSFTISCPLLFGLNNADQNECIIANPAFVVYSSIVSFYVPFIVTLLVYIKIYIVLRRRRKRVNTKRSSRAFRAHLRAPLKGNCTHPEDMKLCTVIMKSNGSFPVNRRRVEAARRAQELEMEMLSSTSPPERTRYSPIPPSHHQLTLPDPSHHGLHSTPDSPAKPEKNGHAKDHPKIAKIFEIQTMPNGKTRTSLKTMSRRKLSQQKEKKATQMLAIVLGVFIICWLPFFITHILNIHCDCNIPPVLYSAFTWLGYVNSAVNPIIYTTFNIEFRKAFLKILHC
measurement_name: EC50 (nM)
Provide only the numeric value, understood in nM.

Worked cases, answers included:
CCCN1C[C@H](C(=O)NC(CC)CC)C=C2c3cccc4[nH]cc(c34)C[C@H]21 | 7.01
CCCN1C[C@H](C(=O)N2[C@@H](C)C[C@@H]2C)C=C2c3cccc4[nH]cc(c34)C[C@H]21 | 21
CCN(CC)C(=O)[C@@H]1C=C2c3cccc4[nH]cc(c34)C[C@H]2N(CCCF)C1 | 27.7
CCCN1C[C@H](C(=O)N[C@H](C)CC)C=C2c3cccc4[nH]cc(c34)C[C@H]21 | 27.2

Form entry - test system: D2 receptor (Homo sapiens); read-out: EC50; compound: CCCN1C[C@H](C(=O)N(CC)CC)C=C2c3cccc4[nH]cc(c34)C[C@H]21
2.17

Form entry - test system: D2 receptor (Homo sapiens); read-out: EC50; compound: CCN(CC)C(=O)[C@@H]1C=C2c3cccc4[nH]cc(c34)C[C@H]2N(C)C1 [LSD, lysergic acid diethylamide, reference compound]
4.93

* * *

target: human 5-HT2C receptor (Homo sapiens, UniProt P28335); test: cell-based; conditions: Ca^2+ flux, agonist
Sequence (P28335 33-458): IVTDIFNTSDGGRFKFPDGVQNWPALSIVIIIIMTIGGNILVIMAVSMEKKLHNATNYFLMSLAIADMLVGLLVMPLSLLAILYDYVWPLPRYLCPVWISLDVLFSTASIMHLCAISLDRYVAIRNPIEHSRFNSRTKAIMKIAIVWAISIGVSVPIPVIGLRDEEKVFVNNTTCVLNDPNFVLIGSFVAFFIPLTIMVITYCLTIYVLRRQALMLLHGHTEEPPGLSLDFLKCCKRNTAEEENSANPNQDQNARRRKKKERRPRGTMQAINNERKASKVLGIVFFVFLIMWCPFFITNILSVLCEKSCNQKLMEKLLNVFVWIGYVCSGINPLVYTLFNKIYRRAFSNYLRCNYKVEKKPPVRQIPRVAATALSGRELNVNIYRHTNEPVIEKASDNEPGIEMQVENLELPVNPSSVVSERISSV
Y if EC50 is below 6 nM. N if not; exact matches included in N.

Previously resolved entries follow.
CCCN1C[C@@H](C(=O)N[C@H](C)CC)C=C2c3cccc4[nH]cc(c34)C[C@H]21 | N
C=CCN1C[C@H](C(=O)N[C@H](C)CC)C=C2c3cccc4[nH]cc(c34)C[C@H]21 | Y
CC[C@@H](C)NC(=O)[C@H]1C=C2c3cccc4[nH]cc(c34)C[C@H]2N(C)C1 | N
CCN(CC)C(=O)[C@H]1C=C2c3cccc4[nH]cc(c34)C[C@H]2N(CCCF)C1 | N
C=CCN1C[C@@H](C(=O)N[C@H](C)CC)C=C2c3cccc4[nH]cc(c34)C[C@H]21 | N

Problem: For the compound CCC(CC)NC(=O)[C@@H]1C=C2c3cccc4[nH]cc(c34)C[C@H]2N(C)C1 , is EC50 under 6 nM?
Y

Problem: For the compound CC[C@@H](C)NC(=O)[C@@H]1C=C2c3cccc4[nH]cc(c34)C[C@H]2N(C)C1 , is EC50 under 6 nM?
N

* * *

target: 5-HT2A receptor (Homo sapiens, UniProt P28223); construct: host or cells: HEK293; assay: PathHunter beta-arrestin recruitment assay at 5-HT2A; assay type: cell-based
Sequence (P28223 whole entry): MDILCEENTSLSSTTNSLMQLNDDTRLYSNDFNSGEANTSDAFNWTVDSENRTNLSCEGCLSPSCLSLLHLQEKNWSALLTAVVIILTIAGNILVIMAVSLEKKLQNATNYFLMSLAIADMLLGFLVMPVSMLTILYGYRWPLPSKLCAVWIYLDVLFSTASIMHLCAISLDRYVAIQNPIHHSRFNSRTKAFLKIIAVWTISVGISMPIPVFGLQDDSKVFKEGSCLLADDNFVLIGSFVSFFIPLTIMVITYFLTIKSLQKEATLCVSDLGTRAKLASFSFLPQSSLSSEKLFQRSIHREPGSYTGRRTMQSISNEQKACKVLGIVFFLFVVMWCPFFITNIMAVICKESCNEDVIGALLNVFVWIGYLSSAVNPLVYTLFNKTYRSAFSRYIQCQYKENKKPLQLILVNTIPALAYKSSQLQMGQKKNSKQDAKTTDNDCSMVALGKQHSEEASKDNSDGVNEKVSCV
Listed compounds paired with reported pEC50
Just so you know, pEC50 here is -log10 of the concentration in molar units; reply with that number alone.

Fill blank: measured pEC50 of the compound CC[C@@H](C)NC(=O)[C@H]1C=C2c3cccc4[nH]cc(c34)C[C@H]2N(CC)C1 is ____.
7.18

Fill blank: measured pEC50 of the compound CCN(CC)C(=O)[C@@H]1C=C2c3cccc4[nH]cc(c34)C[C@H]2N(CCCF)C1 is ____.
8.64

Fill blank: measured pEC50 of the compound CCC(CC)NC(=O)[C@H]1C=C2c3cccc4[nH]cc(c34)C[C@H]2N(C)C1 [Int14a] is ____.
7.45

Fill blank: measured pEC50 of the compound CC[C@@H](C)NC(=O)[C@@H]1C=C2c3cccc4[nH]cc(c34)C[C@H]2N(C)C1 is ____.
8.39

Fill blank: measured pEC50 of the compound C=CCN1C[C@H](C(=O)N[C@H](C)CC)C=C2c3cccc4[nH]cc(c34)C[C@H]21 is ____.
8.77

Fill blank: measured pEC50 of the compound CCC[C@@H](C)NC(=O)[C@H]1C=C2c3cccc4[nH]cc(c34)C[C@H]2N(C)C1 [Int17a] is ____.
7.12
